Where do the numbers come from? From paper PMC10786891.

- study_system: T1, EsCas13d, nuclease-dead (Eubacterium siraeum, UniProt B0MS50, R295A;H300A;R849A;H854A)
- T1 sequence: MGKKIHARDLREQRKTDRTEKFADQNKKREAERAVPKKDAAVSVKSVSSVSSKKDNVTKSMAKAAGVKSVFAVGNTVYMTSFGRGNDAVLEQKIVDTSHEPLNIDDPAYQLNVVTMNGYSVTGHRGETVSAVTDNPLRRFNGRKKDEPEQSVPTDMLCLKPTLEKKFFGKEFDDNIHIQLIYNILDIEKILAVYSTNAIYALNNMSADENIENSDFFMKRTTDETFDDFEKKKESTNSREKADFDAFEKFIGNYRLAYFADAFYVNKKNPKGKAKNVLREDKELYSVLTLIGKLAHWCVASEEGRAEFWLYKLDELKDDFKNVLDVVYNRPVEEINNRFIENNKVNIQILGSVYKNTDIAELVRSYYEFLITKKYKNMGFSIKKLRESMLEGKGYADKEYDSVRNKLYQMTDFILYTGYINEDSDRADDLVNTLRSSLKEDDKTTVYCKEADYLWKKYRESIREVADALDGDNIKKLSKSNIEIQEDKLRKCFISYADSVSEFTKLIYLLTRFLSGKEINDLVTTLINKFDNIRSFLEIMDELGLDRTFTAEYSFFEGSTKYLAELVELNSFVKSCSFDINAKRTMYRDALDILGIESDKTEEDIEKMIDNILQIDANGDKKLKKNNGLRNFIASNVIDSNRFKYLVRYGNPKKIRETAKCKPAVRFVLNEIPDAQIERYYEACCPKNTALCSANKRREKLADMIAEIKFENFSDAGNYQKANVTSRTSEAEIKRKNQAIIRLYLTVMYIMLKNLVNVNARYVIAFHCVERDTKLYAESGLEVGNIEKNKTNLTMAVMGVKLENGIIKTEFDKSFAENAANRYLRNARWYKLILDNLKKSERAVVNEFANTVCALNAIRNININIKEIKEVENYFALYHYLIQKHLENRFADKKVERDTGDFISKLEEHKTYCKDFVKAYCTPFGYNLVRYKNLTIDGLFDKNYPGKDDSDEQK
- protocol_notes: crRNA (strand 1, pre-loaded); Mg2+; 40 mM Tris-HCl pH 7.5, 150 mM NaCl, 6 mM MgCl2, 1 mM DTT, 0.1% Tween-20, 0.2 mg/ml BSA; 25 C; 10 min per concentration, then washed
- assay_context: tags: His6-TwinStrep-SUMO cleaved; N-terminal SNAP kept (SNAP-Surface 488); label: 3' end held by stalled T7 RNA polymerase
What log10 of Kd was measured for each of the following?
Reminder: these figures are log10 of reported Kd, in nM before transformation.

Ask | Request the reported log10 of Kd associated with target 1 insC 3' of 9,insU 3' of 4 (mixed) RNA 1: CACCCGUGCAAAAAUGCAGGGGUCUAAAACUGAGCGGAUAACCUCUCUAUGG RNA 2: GGGAAUGGAUCCACAUCUACGAAUUCGUACCAUAGAGAGGUUACUCCGCUUCACCGAGAUCGGAAGAGCACACGU
Reply | 0.96

Ask | Now try target 1 insU 3' of 18,insA 3' of 8 (mixed) RNA 1: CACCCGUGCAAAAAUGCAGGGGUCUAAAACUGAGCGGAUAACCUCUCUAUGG RNA 2: GGGAAUGGAUCCACAUCUACGAAUUCGUACCAUAUGAGAGGUUAUACCGCUCACCGAGAUCGGAAGAGCACACGU .
Reply | 1.74

Ask | Now try target 1 insU 3' of 12,insC 3' of 1 (mixed) RNA 1: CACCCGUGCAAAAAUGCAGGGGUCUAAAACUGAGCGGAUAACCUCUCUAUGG RNA 2: GGGAAUGGAUCCACAUCUACGAAUUCGUACCAUAGAGAGGUUUAUCCGCUCACCCGAGAUCGGAAGAGCACACGU .
Reply | 0.95

Parameter requested: log10 of Kd. Apply to each item below.
1. target 1 G5A,C7U (mixed) RNA 1: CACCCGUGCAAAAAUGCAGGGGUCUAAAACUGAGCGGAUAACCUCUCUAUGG RNA 2: GGGAAUGGAUCCACAUCUACGAAUUCGUACCAUAGAGAGGUUAUUCACUCACCGAGAUCGGAAGAGCACACGU
2. target 1 MT 5'PFS GGC 3'PFS CCA (mixed) RNA 1: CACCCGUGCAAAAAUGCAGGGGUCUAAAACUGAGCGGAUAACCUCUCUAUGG RNA 2: GGGAAUGGAUCCACAUCUACGAAUUCGGCCCAUAGAGAGGUUAUCCGCUCACCAAGAUCGGAAGAGCACACGU
3. target 1 insC 3' of 19,insA 3' of 4 (mixed) RNA 1: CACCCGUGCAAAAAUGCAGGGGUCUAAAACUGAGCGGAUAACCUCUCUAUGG RNA 2: GGGAAUGGAUCCACAUCUACGAAUUCGUACCAUCAGAGAGGUUAUCCGCAUCACCGAGAUCGGAAGAGCACACGU

Reply |
0.89
1.50
1.40

Parameter requested: log10 of Kd. Apply to each item below.
1. target 1 insG 3' of 18,insG 3' of 10 (mixed) RNA 1: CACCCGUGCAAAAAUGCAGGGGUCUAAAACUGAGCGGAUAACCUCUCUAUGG RNA 2: GGGAAUGGAUCCACAUCUACGAAUUCGUACCAUAGGAGAGGUUGAUCCGCUCACCGAGAUCGGAAGAGCACACGU
2. target 1 MT 5'PFS GCG 3'PFS UUA (mixed) RNA 1: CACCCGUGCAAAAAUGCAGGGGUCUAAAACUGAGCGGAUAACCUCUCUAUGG RNA 2: GGGAAUGGAUCCACAUCUACGAAUUCGCGCCAUAGAGAGGUUAUCCGCUCAUUAAGAUCGGAAGAGCACACGU
3. target 1 insC 3' of 22,insU 3' of 21 (mixed) RNA 1: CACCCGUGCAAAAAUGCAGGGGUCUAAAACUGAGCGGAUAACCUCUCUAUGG RNA 2: GGGAAUGGAUCCACAUCUACGAAUUCGUACCCUAUAGAGAGGUUAUCCGCUCACCGAGAUCGGAAGAGCACACGU
4. target 1 insU 3' of 18,insC 3' of 18 (mixed) RNA 1: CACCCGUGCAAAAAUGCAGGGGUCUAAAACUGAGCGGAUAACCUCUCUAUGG RNA 2: GGGAAUGGAUCCACAUCUACGAAUUCGUACCAUAUCGAGAGGUUAUCCGCUCACCGAGAUCGGAAGAGCACACGU

Reply |
[1.79, 0.96, 1.23, 1.92]
